All values here come from the RNAGym collection of RNA variant scans (doi:10.7554/elife.80360).

B1: Twister Ribozyme (parent)
chain: AACACUGCCAAUGCCGGUCCCAAGCCCGGAUAAAAGUGGAGGGGGCGG

variants of: B1; assay: self-cleavage, relative activity (ratio to wild type); higher = more cleavage; co-transcriptional
Metric Name: self-cleavage

A4C C20U	0.0732
C5A C15U	0.398
G29C	0.858
C5A G36C	0.519
A10C A11G	1.12
A34C A40U	0.0943
A11G A32G	0.882
A22C A40U	0.152
C15A G38U	0.355
C14G C20A	0.104
G36A G41C	0.133
U6C U18A	0.0773
U31G G45U	0.883
G7U G44C	0.0951
G28C A33G	0.83
A2U C46G	0.53
A22C U37G	0.631
U6C C25A	0.108
C27U G28U	0.501
U12G A23U	0.566
A22U G41U	0.137
G36C G45U	0.257
